condition-summary: 298.15 K, Maximal bubble pressure
recorded-endpoint: surface tension liquid-gas (mN/m)

Observe how each entry below is paired with its result.
>>> print(df.to_string())
                                   compound           recorded_endpoint  experimental_value
0  CCCCC[n+]1ccn(C)c1.O=P([O-])(O)O [1-methyl-3-pentylimidazolium dihydrogen phosphate]  surface tension liquid-gas                41.2
1  CCCCn1cc[n+](C)c1.O=C([O-])O [1-butyl-3-methylimidazolium hydrogen carbonate]  surface tension liquid-gas                  34
2  CCCCCn1cc[n+](C)c1C.O=S(=O)([O-])O [2,3-dimethyl-1-pentylimidazolium hydrogen sulfate]  surface tension liquid-gas                  42

A = CCCCn1cc[n+](C)c1C.O=S(=O)([O-])O [1-butyl-2,3-dimethylimidazolium hydrogen sulfate]
B = CCCCCn1cc[n+](C)c1.O=C([O-])O [3-methyl-1-pentylimidazolium hydrogen carbonate]
In: Smaller surface tension liquid-gas value, A vs B ? Select an item and report its label.
Out: B
(B: 30.9 mN/m, A: 44.8 mN/m)

====

condition-summary: 303.15 K; 101.33 kPa; Liquid; Vibrating tube method
recorded-endpoint: mass density (kg/m3)

>>> print(df.to_string())
                                   molecule  experimental_value
0  CCCCn1cc[n+](C)c1C.O=S(=O)([O-])O [1-butyl-2,3-dimethylimidazolium hydrogen sulfate]             1207.35
1  CCCCC[n+]1ccn(C)c1.O=P([O-])(O)O [1-methyl-3-pentylimidazolium dihydrogen phosphate]             1139.09
2  CCCCCn1cc[n+](C)c1.O=C([O-])O [3-methyl-1-pentylimidazolium hydrogen carbonate]             1138.28
3  CCCCCn1cc[n+](C)c1C.O=S(=O)([O-])O [2,3-dimethyl-1-pentylimidazolium hydrogen sulfate]             1186.89
4  CCCCn1cc[n+](C)c1.O=P([O-])(O)O [1-butyl-3-methylimidazolium dihydrogen phosphate]             1173.18

====

condition-summary: 288.15 K, Maximal bubble pressure
recorded-endpoint: surface tension liquid-gas (mN/m)

>>> print(df.to_string())
                                   compound  experimental_value
0  CCCCn1cc[n+](C)c1.O=P([O-])(O)O [1-butyl-3-methylimidazolium dihydrogen phosphate]                44.2
1  CCCn1cc[n+](C)c1C.O=S(=O)([O-])O [2,3-dimethyl-1-propylimidazolium hydrogen sulfate]                47.7
2  CCCCCn1cc[n+](C)c1C.O=S(=O)([O-])O [2,3-dimethyl-1-pentylimidazolium hydrogen sulfate]                42.5
3  CCCCC[n+]1ccn(C)c1.O=P([O-])(O)O [1-methyl-3-pentylimidazolium dihydrogen phosphate]                41.8
4  CCn1cc[n+](C)c1C.O=S(=O)([O-])O [1-ethyl-2,3-dimethylimidazolium hydrogen sulfate]                50.4
5  CCCCCn1cc[n+](C)c1.O=C([O-])O [3-methyl-1-pentylimidazolium hydrogen carbonate]                31.9
6  CCC[n+]1ccn(C)c1.O=P([O-])(O)O [1-methyl-3-propylimidazolium dihydrogen phosphate]                46.4
7  CCCCn1cc[n+](C)c1.O=C([O-])O [1-butyl-3-methylimidazolium hydrogen carbonate]                34.9
8  CCCCn1cc[n+](C)c1C.O=S(=O)([O-])O [1-butyl-2,3-dimethylimidazolium hydrogen sulfate]                45.3

====

condition-summary: 343.15 K; 101.33 kPa; Liquid; Concentric cylinders viscometry
recorded-endpoint: viscosity (mPa·s)

Here is how some molecules turned out for viscosity.
>>> df
                                   molecule  recorded_endpoint  experimental_value
0  CCCCn1cc[n+](C)c1.O=C([O-])O [1-butyl-3-methylimidazolium hydrogen carbonate]          viscosity               10.04
1  CCCCn1cc[n+](C)c1C.O=S(=O)([O-])O [1-butyl-2,3-dimethylimidazolium hydrogen sulfate]          viscosity               38.13
2  CCCn1cc[n+](C)c1C.O=S(=O)([O-])O [2,3-dimethyl-1-propylimidazolium hydrogen sulfate]          viscosity               21.17
3  CCC[n+]1ccn(C)c1.O=P([O-])(O)O [1-methyl-3-propylimidazolium dihydrogen phosphate]          viscosity               10.04

I = CCCCCn1cc[n+](C)c1.O=C([O-])O [3-methyl-1-pentylimidazolium hydrogen carbonate]
II = CCCCCn1cc[n+](C)c1C.O=S(=O)([O-])O [2,3-dimethyl-1-pentylimidazolium hydrogen sulfate]
III = CCCCC[n+]1ccn(C)c1.O=P([O-])(O)O [1-methyl-3-pentylimidazolium dihydrogen phosphate]
In: # sort list by recorded viscosity, greatest to least Answer format: the labels, ordered as requested.
Out: II, III, I
(II: 57.54 mPa·s, III: 31.43 mPa·s, I: 14.71 mPa·s)

I = CCCCn1cc[n+](C)c1.O=P([O-])(O)O [1-butyl-3-methylimidazolium dihydrogen phosphate]
II = CCn1cc[n+](C)c1C.O=S(=O)([O-])O [1-ethyl-2,3-dimethylimidazolium hydrogen sulfate]
In: From the recorded data, which exceeds the other in viscosity: I or II ? Respond using the label that marks the chosen record.
Out: I

====

condition-summary: 343.15 K; 101.33 kPa; Liquid; Vibrating tube method
recorded-endpoint: mass density (kg/m3)

>>> df
                                   compound  recorded_endpoint  experimental_value
0  CCCCn1cc[n+](C)c1C.O=S(=O)([O-])O [1-butyl-2,3-dimethylimidazolium hydrogen sulfate]       mass density             1180.99
1  CCCCCn1cc[n+](C)c1C.O=S(=O)([O-])O [2,3-dimethyl-1-pentylimidazolium hydrogen sulfate]       mass density             1162.18
2  CCCn1cc[n+](C)c1C.O=S(=O)([O-])O [2,3-dimethyl-1-propylimidazolium hydrogen sulfate]       mass density             1201.46
3  CCCCn1cc[n+](C)c1.O=P([O-])(O)O [1-butyl-3-methylimidazolium dihydrogen phosphate]       mass density             1146.03

====

condition-summary: 343.15 K; 101.33 kPa; Liquid; Alternating current cell with electrodes
recorded-endpoint: electrical conductivity (S/m)

>>> print(df.to_string())
                                   molecule        recorded_endpoint  result_unit  experimental_value
0  CCCCCn1cc[n+](C)c1.O=C([O-])O [3-methyl-1-pentylimidazolium hydrogen carbonate]  electrical conductivity          S/m               0.794
1  CCCCC[n+]1ccn(C)c1.O=P([O-])(O)O [1-methyl-3-pentylimidazolium dihydrogen phosphate]  electrical conductivity          S/m               0.825
2  CCCn1cc[n+](C)c1C.O=S(=O)([O-])O [2,3-dimethyl-1-propylimidazolium hydrogen sulfate]  electrical conductivity          S/m               0.832

P = CCCCCn1cc[n+](C)c1C.O=S(=O)([O-])O [2,3-dimethyl-1-pentylimidazolium hydrogen sulfate]
Q = CCCCn1cc[n+](C)c1.O=P([O-])(O)O [1-butyl-3-methylimidazolium dihydrogen phosphate]
In: Returns: the argument ( P or Q ) having the larger electrical conductivity. Response format: the label of the selected entry.
Out: Q

====

condition-summary: 308.15 K; 101.33 kPa; Liquid; Concentric cylinders viscometry
recorded-endpoint: viscosity (mPa·s)

Below: 2 molecules and their reported viscosity.
>>> df
                                   molecule  recorded_endpoint  experimental_value
0  CCCCC[n+]1ccn(C)c1.O=P([O-])(O)O [1-methyl-3-pentylimidazolium dihydrogen phosphate]          viscosity                 130
1  CCCCn1cc[n+](C)c1.O=P([O-])(O)O [1-butyl-3-methylimidazolium dihydrogen phosphate]          viscosity               80.78

a = CCn1cc[n+](C)c1C.O=S(=O)([O-])O [1-ethyl-2,3-dimethylimidazolium hydrogen sulfate]
b = CCCn1cc[n+](C)c1C.O=S(=O)([O-])O [2,3-dimethyl-1-propylimidazolium hydrogen sulfate]
c = CCCCCn1cc[n+](C)c1C.O=S(=O)([O-])O [2,3-dimethyl-1-pentylimidazolium hydrogen sulfate]
In: Rank order required: viscosity, descending. Hello, could you send the labels back in the order asked? Thank you.
Out: c, b, a
(c: 281.1 mPa·s, b: 142.2 mPa·s, a: 98.41 mPa·s)
